Tested on: SK-OV-3 ovarian
Protocol Summary: NCI tumour cell line growth inhibition, 48 h
Would you mind telling me the reported TGI of each entry?

Molecule: O=CNNC(=O)Nc1ccc(Cl)cc1
Result: > 100 µM
--
Molecule: CCCn1cnc2c(SCc3ccccc3)nc(N)nc21
Result: > 100 µM
--
Molecule: CC(c1ccccc1)N1CC(C)(c2ccccc2)N(O)C(c2ccccc2)C1C (stereo unspecified)
Result: 87.8 µM
--
Molecule: O=S(=O)(O)C1CCC(O)C2[N-]CCCC21.O=S(=O)(O)C1CCC(O)C2[N-]CCCC21.[Zn+2] (stereo unspecified)
Result: > 100 µM
--
Molecule: O=C(O)Cn1ccnc1[N+](=O)[O-]
Result: > 100 µM
--
Molecule: CCN(CC)CCN(C)CCc1ccc(Br)cc1
Result: > 100 µM
--
Molecule: Cc1cc([N+](=O)[O-])c(S(=O)(=O)c2ccccc2)c([N+](=O)[O-])c1
Result: 74.7 µM
--
Molecule: CC(=O)O[C@H]1C(=O)N(c2cc3c4ccccc4ccc3c3ccccc23)[C@@H]1c1ccccc1
Result: 35.8 µM
--
Molecule: CC1(C)CCC2(C(=O)OC3OC(CO)C(O)C(O)C3O)CCC3(CO)C(=CCC4C5(C)CC(O)C(O)C(C)(C(=O)OC6OC(CO)C(O)C(O)C6O)C5CCC43C)C2C1 (stereo unspecified)
Result: > 100 µM
--
Molecule: CC12CC(C/C1=N/O)C(C)(C)C2 (stereo unspecified)
Result: > 100 µM

Please report TGI for every entry that follows.
1. Fc1cc(-c2nnc3n2N=C(c2ccc(Cl)cc2Cl)CS3)c(Cl)cc1Cl
2. COc1ccc2c(c1)nc1n2C(c2ccc(F)cc2)SC1 (stereo unspecified)
3. CN(C)CCCC1(c2ccc(F)cc2)OCc2cc(-c3cncc4ccccc34)ccc21 (stereo unspecified)
4. COc1cc(O)c(C(C)=O)c(O)c1
5. NS(=O)(=O)c1cc(S(N)(=O)=O)c(NC(=O)N(c2ccccc2)c2ccccc2)c(Cl)c1Cl

*A*
1: > 100 µM; 2: > 100 µM; 3: 18.8 µM; 4: > 100 µM; 5: 65.3 µM

Please report TGI for every entry that follows.
1. CCC(=O)c1cc([N+](=O)[O-])c(Br)s1
2. COC(=O)/C=C/c1ccc2c(c1)CC1(Cc3ccccc3C1)C2
3. CC(C)(C)c1cc(CCC(=O)Nc2ccc(Cl)cc2Cl)nc(N)n1
4. CCOCNc1ccc(N2C(=O)/C(=C/c3ccc(N(CC)CC)cc3)N=C2c2ccccc2)cc1
5. CC1(C)CC(=O)c2c(oc3cc(O)c(O)cc23)C1
6. C=C(CNCCc1ccc(O)cc1)[C@@H]1CC[C@]2(CO)CC[C@]3(C)[C@H](CC[C@@H]4[C@@]5(C)CCC(N)C(C)(C)[C@@H]5CC[C@]43C)[C@@H]12 (stereo partly specified)

*A*
["33.9 µM", "> 100 µM", "> 100 µM", "82.9 µM", "> 100 µM", "3.34 µM"]

* * *

Would you mind telling me the reported TGI of each entry?
System: U251 CNS
Protocol Summary: NCI tumour cell line growth inhibition, 48 h

// worked examples, TGI included
Molecule: Cc1cc2occ(-c3ccc(Cl)cc3)c2c(=O)o1
TGI: > 100 µM
//
Molecule: Cn1c(=O)sc2cc(C(=S)N3CCOCC3)ccc21
TGI: > 100 µM
//
Molecule: O=c1oc2ccc(Cl)cc2cc1-c1cn2ccsc2n1
TGI: > 100 µM
//
Molecule: c1ccc([P+](c2ccccc2)(c2ccccc2)c2ccc([P+](c3ccccc3)(c3ccccc3)c3ccccc3)cc2)cc1
TGI: > 100 µM
//
Molecule: CCCCCCCCCCCCCCCCS(=O)(=O)c1ccc(NN)cc1
TGI: > 10 µM
//
Molecule: O=c1oc2ccc(F)cc2c(=O)n1-c1ccc(Br)cc1F
TGI: > 100 µM
//
Molecule: NC(=S)N/N=C\CC(O)(C(F)(F)F)C(F)(F)F
TGI: > 10 µM
//
Molecule: COc1ccc(-c2cc(/C=C/C(=O)c3cc(OC)c(OC)c(OC)c3)[nH]n2)cc1OC
TGI: 2.53 µM
//
Molecule: CC(=O)Nc1ccc(C(=O)N2N=C(C)/C(=C/c3ccc(O)cc3)C2=O)cc1
TGI: > 100 µM
//
Molecule: C/C(=C\Cc1cc(O)ccc1O)CCc1c(C)cc(O)c(C=O)c1C
TGI: 67.6 µM

Please report TGI for every entry that follows.
1. CN(C)C/C=C/C(=O)Nc1ccc(C(=O)N2CCC[C@@H](Nc3ncc(Cl)c(-c4c[nH]c5ccccc45)n3)C2)cc1
2. CC1(C)COC(c2c(-c3ccccc3)noc2CS(=O)c2ccccc2)=N1 (stereo unspecified)
3. CCCn1cnc2c(SCc3ccccc3)nc(N)nc21
4. CCOc1ccc(-c2oc(/C=N/NS(=O)(=O)c3ccc(C)cc3)c([N+](=O)[O-])c2-c2ccc(OCC)cc2)cc1
5. CC12OC(C(=O)C13CCC3)C1C(=O)c3ccccc3C(=O)C12 (stereo unspecified)

*A*
["10 µM", "> 100 µM", "> 100 µM", "21.2 µM", "> 100 µM"]

Please report TGI for every entry that follows.
1. CC(=O)OCCC(O[Si](c1ccccc1)(c1ccccc1)C(C)(C)C)C(C)(C)O (stereo unspecified)
2. CC(C)(C)CC(C)(C)c1ccc(OCCOCC[N+](C)(C)Cc2ccccc2)cc1
3. CO[P@]1(=O)O[C@@H](c2ccccc2)[C@H](O)[C@@]1(O)c1ccccc1
4. CCOC(=O)c1nc2ccccc2nc1NCc1ccc(Cl)cc1Cl
5. CC(C)(C)c1c(C(C)(C)C)c(=O)c1=O
6. CC(=O)c1ccc(NC(=O)CSc2nc(C)nc3c2sc(=S)n3-c2ccccc2)cc1

*A*
1: > 100 µM; 2: 4.44 µM; 3: > 100 µM; 4: > 100 µM; 5: > 100 µM; 6: > 3.16 µM

* * *

Would you mind telling me the reported TGI of each entry?
Test system: U251 CNS
Protocol Summary: NCI tumour cell line growth inhibition, 48 h

Compound: COc1ccc2[nH]c3c(=O)[nH]ncc3c2c1
TGI: > 100 µM

Please report TGI for every entry that follows.
1. CCN1C(=O)CS/C1=N/NC(=O)C(O)(c1ccccc1)C1C=CC=CC1 (stereo not given)
2. COc1ccc(C(=O)c2ccc(-n3cc(/C=C/[N+](=O)[O-])c4ccccc43)cc2)cc1
3. CCOC(=O)CCCn1cc(C(=O)OC)nn1
4. O=C(c1ccco1)C1CC(c2ccc3ccccc3c2O)=NN1c1ccc([N+](=O)[O-])cc1[N+](=O)[O-] (stereo not given)
5. CCOC1=C2NC(Cc3ccc(F)cc3)=NC2C(=O)c2ccccc21 (stereo not given)
6. COC(=O)C(C(=O)C(=O)NC1Nc2ccc(C)cc2S1)c1nc2ccc(Cl)cc2[nH]c1=O (stereo not given)

*A*
1: > 10 µM; 2: 24.9 µM; 3: > 100 µM; 4: > 100 µM; 5: > 100 µM; 6: > 100 µM

Please report TGI for every entry that follows.
1. CC(C)C1CC(CO)(CNc2cc(Cl)nc(N)n2)C1 (stereo not given)
2. CCc1cccc(CC)c1/C=C/c1cncc(C(=O)NC)c1
3. CC[C@H](C)[C@H](NC(=O)[C@H]1CCCCN1C)C(=O)N(C)[C@H](C[C@@H](OC(C)=O)c1nc(C(=O)N[C@@H](Cc2ccccc2)C[C@H](C)C(=O)OC)cs1)C(C)C

*A*
1: > 100 µM; 2: > 25 µM; 3: > 25 µM

* * *

Test system: NCI-H226 lung
Protocol Summary: NCI tumour cell line growth inhibition, 48 h
Reported Metric: TGI (µM)
Give bare numbers, in µM.

Substance Smiles: NS(=O)(=O)c1cc(S(N)(=O)=O)c(NC(=O)N(c2ccccc2)c2ccccc2)c(Cl)c1Cl
TGI [µM]: 53.7

Then this compound:
*Q* Item under review: "Cc1c(C(=O)OCc2ccccc2)[n+](=O)c2cc(F)c(F)cc2n1[O-]" . Reported TGI?
*A* 6.74

* * *

System: BT-549 breast
Protocol Summary: NCI tumour cell line growth inhibition, 48 h
Reported Metric: TGI

Compound: CC(C)=CCC[C@@H](C)c1c2[nH]c3ccccc3sc-2c(C)c(=O)c1=O
Result: > 75 µM
//
Compound: COc1cc2cc(Oc3ccc(NC(=O)c4cccc5c4OCCO5)cc3)c(C)nc2cc1OC
Result: 4.42 µM
//
Compound: COc1ccc(NC(=O)c2sc3nc4c(cc3c2N)CCCC4)cc1
Result: 13.9 µM

Please report TGI for every entry that follows.
1. O=c1[nH]c2cc(Cl)c(Cl)cc2n2cc3ccccc3c12
2. CC(C)(C)OC(=O)N1CCc2c(n(C/C=C/c3ccccc3)[nH]c2=O)C1
3. Cc1cc(NC(=O)NC(=O)c2ccccc2N(C)C)ccc1Oc1ncc(Br)cn1
4. Cc1c2cccc-2ccc2c1[nH]c1ccccc12
5. O=C(O)Cn1ccnc1[N+](=O)[O-]
6. COc1ccc(/C=C2\CCC(CNc3ccc(Br)cc3)C2=O)cc1 (stereo unspecified)
7. O=C1C=C(N2CCN(c3ccccn3)CC2)C(=O)c2c(O)ccc(O)c21

*A*
57.2 µM
> 100 µM
> 46.4 µM
9.56 µM
> 100 µM
> 100 µM
> 100 µM

*Q* Item under review: Cc1ccc(S(=O)(=O)N/N=C2\C3CC4CC(C3)C2C4)cc1 (stereo unspecified) . Reported TGI?
*A* > 100 µM
